Target: human GPR55 (Homo sapiens)
Construct: β-galactosidase enzyme fragment (PathHunter complementation tag)
Sequence (Q9Y2T6 whole entry, the tested form may be a part): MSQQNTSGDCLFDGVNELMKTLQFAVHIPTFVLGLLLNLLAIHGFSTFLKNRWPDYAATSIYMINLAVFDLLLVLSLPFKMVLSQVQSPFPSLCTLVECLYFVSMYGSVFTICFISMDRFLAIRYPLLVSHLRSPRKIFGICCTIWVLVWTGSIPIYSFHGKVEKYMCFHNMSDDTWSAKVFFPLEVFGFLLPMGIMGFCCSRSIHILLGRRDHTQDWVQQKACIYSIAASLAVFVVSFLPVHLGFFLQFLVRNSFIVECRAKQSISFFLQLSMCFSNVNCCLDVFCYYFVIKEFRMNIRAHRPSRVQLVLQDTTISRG
Experiment: β-Arrestin recruitment assay (PathHunter) at GPR55
Assay type: cell-based
Settings: Human GPR55 IC50, β-arrestin assay, antagonist mode
Description: Recruitment of β-arrestin to the respective receptor was detected by using β-galactosidase enzyme fragment complementation technology (β-arrestin PathHunter™ assay, DiscoverX, Fremont, CA, USA) as previously described. Data were obtained from three independent experiments, performed in duplicates. Data were analyzed using Graph Pad Prism Version 4.02 (San Diego, CA, USA).
pIC50: −log10 of the molar value.
propertyMeasured: pIC50

>>> print(df.to_string())
                                  cpdsmiles               assayedtarget  obsvalue
0  O=C(c1cccc2ccccc12)c1nn(CCCCCF)c2ccccc12  human GPR55 (Homo sapiens)    < 5.00

Would you be so kind as to report pIC50 for each listed record?
1. Cc1c(C(=O)C2C(C)(C)C2(C)C)c2ccccc2n1CCCCCF
2. O=C(Oc1cccc2ccccc12)c1cn(CCCCCF)c2ccccc12
3. O=C(Nc1cccc2ccccc12)c1cn(CCCCCCl)c2ccccc12

["~5.00", "< 5.00", "< 5.00"]
